The measured values listed here are drawn from patent US9018175B2.

biological target: human PDE5 (Homo sapiens); construct: from tissue; host or cells: human platelets from fresh donor blood (10,000 g supernatant of sonicated platelets); assay: Inhibition of PDE5 activity (SPA, [3H]cGMP, platelet lysate); type: biochemical; conditions: PDE5 from human platelet lysate; values given as bins; read-out: PDE5A inhibitory values measured as −logIC50 (converted)
Give IC50 for every item shown.

# count of solved cases: 10
[[record]]
compound = "CCOc1cc2c(cc1OC)C(c1cccc(C(=O)N3CCC(n4c(=O)c5sc(-c6ccccc6)cc5n(Cc5nnn(CC)n5)c4=O)CC3)c1)=N[C@@H]1CCSC[C@H]21 [Example 26]"
result = "< 10 nM"

[[record]]
compound = "CCOc1cc2c(cc1OC)C(c1ccc(C(=O)N3CCC(n4c(=O)c5sc(-c6ccccc6)cc5n(Cc5nc(C)cs5)c4=O)CC3)cc1)=N[C@@H]1CCSC[C@H]21 [Example 13]"
result = "> 100 nM"

[[record]]
compound = "CCOc1cc2c(cc1OC)C(c1ccc(C(=O)N3CCC(n4c(=O)c5sc(-c6ccccc6)cc5n(Cc5nc(CC)ns5)c4=O)CC3)cc1)=N[C@@H]1CCSC[C@H]21 [Example 22]"
result = "10 to 100 nM"

[[record]]
compound = "CCOc1cc2c(cc1OC)C(c1ccc(C(=O)N3CCC(n4c(=O)c5sc(-c6ccccc6)cc5n(Cc5cnc(C)s5)c4=O)CC3)cc1)=N[C@@H]1CCSC[C@H]21 [Example 20]"
result = "< 10 nM"

[[record]]
compound = "CCOc1cc2c(cc1OC)C(c1cccc(C(=O)N3CCC(n4c(=O)c5sc(-c6ccc(F)cc6OC)cc5n(Cc5nnn(CC)n5)c4=O)CC3)c1)=N[C@@H]1CCSC[C@H]21 [Example 33]"
result = "10 to 100 nM"

[[record]]
compound = "CCOc1cc2c(cc1OC)C(c1cccc(C(=O)N3CCC(n4c(=O)c5sc(-c6ccccc6)cc5n(Cc5nc(CC)no5)c4=O)CC3)c1)=N[C@@H]1CCSC[C@H]21 [Example 27]"
result = "< 10 nM"

[[record]]
compound = "CCOc1cc2c(cc1OC)C(c1cccc(C(=O)N3CCC(n4c(=O)c5sc(-c6ccc(F)cc6)cc5n(Cc5nnn(CC)n5)c4=O)CC3)c1)=N[C@@H]1CCSC[C@H]21 [Example 41]"
result = "< 10 nM"

[[record]]
compound = "CCOc1cc2c(cc1OC)C(c1cccc(C(=O)N3CCC(n4c(=O)c5sc(-c6ccc(F)cc6OC)cc5n(Cc5nc(COC)no5)c4=O)CC3)c1)=N[C@@H]1CCSC[C@H]21 [Example 45]"
result = "< 10 nM"

[[record]]
compound = "CCOc1cc2c(cc1OC)C(c1ccc(C(=O)N3CCC(n4c(=O)c5sc(-c6ccccc6)cc5n(Cc5coc(CC)n5)c4=O)CC3)cc1)=N[C@@H]1CCSC[C@H]21 [Example 16]"
result = "> 100 nM"

[[record]]
compound = "CCOc1cc2c(cc1OC)C(c1ccc(C(=O)N3CCC(n4c(=O)c5sc(-c6ccccc6)cc5n(Cc5nnc(C(C)(C)C)o5)c4=O)CC3)cc1)=N[C@@H]1CCSC[C@H]21 [Example 58]"
result = "> 100 nM"


Problem: Suppose we examine the compound CCOc1cc2c(cc1OC)C(c1ccc(C(=O)N3CCC(n4c(=O)c5sc(-c6ccccc6)cc5n(Cc5nc(COC)no5)c4=O)CC3)cc1)=N[C@@H]1CCSC[C@H]21 [Example 15] ; what IC50 value has been reported?
Solution: < 10 nM

* * *

molecular target: PDE4B1 (Homo sapiens, UniProt Q07343); construct: made in house; host or cells: SF21 insect cells (baculovirus; pCR-Bac vector); assay: Inhibition of PDE4B1 activity (SPA, [3H]cAMP); assay type: biochemical; settings: recombinant PDE4B1 expressed in SF21 cells; 0.5 pM [sic] cAMP; values given as bins; read-out: PDE4B1 inhibitory values measured as −logIC50 (converted)
Sequence (Q07343 whole entry): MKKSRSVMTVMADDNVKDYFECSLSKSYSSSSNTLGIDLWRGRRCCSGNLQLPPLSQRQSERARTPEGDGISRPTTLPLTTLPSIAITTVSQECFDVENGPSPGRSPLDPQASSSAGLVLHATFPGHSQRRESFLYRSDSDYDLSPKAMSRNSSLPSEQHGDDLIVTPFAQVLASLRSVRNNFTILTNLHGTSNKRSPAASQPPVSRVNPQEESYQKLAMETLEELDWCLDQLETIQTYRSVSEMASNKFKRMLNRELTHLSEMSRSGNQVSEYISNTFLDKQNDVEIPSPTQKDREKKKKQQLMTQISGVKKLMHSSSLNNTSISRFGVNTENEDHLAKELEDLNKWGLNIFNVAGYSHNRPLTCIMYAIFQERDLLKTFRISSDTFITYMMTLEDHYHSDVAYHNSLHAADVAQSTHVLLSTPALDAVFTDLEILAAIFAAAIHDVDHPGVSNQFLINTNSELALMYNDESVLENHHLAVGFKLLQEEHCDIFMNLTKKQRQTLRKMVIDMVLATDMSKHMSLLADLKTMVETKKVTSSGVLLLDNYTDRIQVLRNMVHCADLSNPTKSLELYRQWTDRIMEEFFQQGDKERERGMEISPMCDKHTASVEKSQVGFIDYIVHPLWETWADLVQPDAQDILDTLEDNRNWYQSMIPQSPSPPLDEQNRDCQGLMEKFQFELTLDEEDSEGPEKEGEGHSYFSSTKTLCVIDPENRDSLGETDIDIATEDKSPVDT
Give IC50 for every item shown.

# count of solved cases: 2
[[record]]
cpd_smiles = "CCOc1cc2c(cc1OC)C(c1ccc(C(=O)N3CCC(n4c(=O)c5sc(-c6ccccc6)cc5n(Cc5ncc(C)s5)c4=O)CC3)cc1)=N[C@@H]1CCSC[C@H]21"
quantity = "IC50"
result = "1 to 10 nM"

[[record]]
cpd_smiles = "CCOc1cc2c(cc1OC)C(c1cccc(C(=O)N3CCC(n4c(=O)c5sc(-c6ccccc6)cc5n(Cc5nnn(CC)n5)c4=O)CC3)c1)=N[C@@H]1CCSC[C@H]21"
quantity = "IC50"
result = "> 10 nM"


Problem: Give IC50 (PDE4B1 (Homo sapiens, UniProt Q07343)) of the following compound: CCOc1cc2c(cc1OC)C(c1ccc(C(=O)N3CCC(n4c(=O)c5sc(-c6ccccc6)cc5n(Cc5ocnc5C)c4=O)CC3)cc1)=N[C@@H]1CCSC[C@H]21
Solution: < 1 nM

* * *

Give IC50 for every item shown.
target: human PDE5 (Homo sapiens, UniProt O76074); construct: from tissue; host or cells: human platelets from fresh donor blood (10,000 g supernatant of sonicated platelets); assay: Inhibition of PDE5 activity (SPA, [3H]cGMP, platelet lysate); assay type: biochemical; settings: PDE5 from human platelet lysate; values given as bins; read-out: PDE5A inhibitory values measured as −logIC50 (converted)

[[record]]
cpd_smiles = "CCOc1cc2c(cc1OC)C(c1ccc(C(=O)N3CCC(n4c(=O)c5sc(-c6ccccc6)cc5n(Cc5nnc(COC)o5)c4=O)CC3)cc1)=N[C@@H]1CCSC[C@H]21"
target_or_test_system = "human PDE5 (Homo sapiens, UniProt O76074)"
result = "10 to 100 nM"

[[record]]
cpd_smiles = "CCOc1cc2c(cc1OC)C(c1ccc(C(=O)N3CCC(n4c(=O)c5sc(-c6ccc(F)cc6OC)cc5n(Cc5nc(CC)no5)c4=O)CC3)cc1)=N[C@@H]1CCSC[C@H]21"
target_or_test_system = "human PDE5 (Homo sapiens, UniProt O76074)"
result = "10 to 100 nM"

[[record]]
cpd_smiles = "CCOc1cc2c(cc1OC)C(c1ccc(C(=O)N3CCC(n4c(=O)c5sc(-c6ccccc6F)cc5n(Cc5nnn(CC)n5)c4=O)CC3)cc1)=N[C@@H]1CCSC[C@H]21"
target_or_test_system = "human PDE5 (Homo sapiens, UniProt O76074)"
result = "< 10 nM"

[[record]]
cpd_smiles = "CCOc1cc2c(cc1OC)C(c1ccc(C(=O)N3CCC(n4c(=O)c5sc(-c6ccccc6)cc5n(Cn5nnc(CC)n5)c4=O)CC3)cc1)=N[C@@H]1CCSC[C@H]21"
target_or_test_system = "human PDE5 (Homo sapiens, UniProt O76074)"
result = "10 to 100 nM"


Next item in the queue.
Problem: Suppose we examine the molecule CCOc1cc2c(cc1OC)C(c1ccc(C(=O)N3CCC(n4c(=O)c5sc(-c6cc(OC)ccc6OC)cc5n(Cc5nnn(CC)n5)c4=O)CC3)cc1)=N[C@@H]1CCSC[C@H]21 ; what IC50 value has been reported?
Solution: < 10 nM

* * *

target: PDE4B1 (Homo sapiens, UniProt Q07343); construct: made in house; host or cells: SF21 insect cells (baculovirus; pCR-Bac vector); assay: Inhibition of PDE4B1 activity (SPA, [3H]cAMP); format: biochemical; settings: recombinant PDE4B1 expressed in SF21 cells; 0.5 pM [sic] cAMP; values given as bins; read-out: PDE4B1 inhibitory values measured as −logIC50 (converted)
Give IC50 for every item shown.

Okay, here is my list. What is IC50 for each of these?
1. CCOc1cc2c(cc1OC)C(c1ccc(C(=O)N3CCC(n4c(=O)c5sc(-c6ccccc6)cc5n(Cc5nc(CCCOC)no5)c4=O)CC3)cc1)=N[C@@H]1CCSC[C@H]21
2. CCOc1cc2c(cc1OC)C(c1ccc(C(=O)N3CCC(n4c(=O)c5sc(-c6ccccc6)cc5n(Cc5noc(C)n5)c4=O)CC3)cc1)=N[C@@H]1CCSC[C@H]21

Solution:
["< 1 nM", "1 to 10 nM"]

* * *

Molecular target: PDE4B1 (Homo sapiens, UniProt Q07343)
Construct: made in house; host or cells: SF21 insect cells (baculovirus; pCR-Bac vector)
Experiment: Inhibition of PDE4B1 activity (SPA, [3H]cAMP)
Format: biochemical
Settings: recombinant PDE4B1 expressed in SF21 cells; 0.5 pM [sic] cAMP; values given as bins; read-out: PDE4B1 inhibitory values measured as −logIC50 (converted)
Protocol: The PDE4B1 (GB no. L20966) was a gift of Prof. M. Conti (Stanford University, USA). […] PDEB1 activities were measured in a 96-well platform using SPA (scintillation proximity assay) yttrium silicate beads (RPNQ1050 from GE Healthcare). […] After the beads have been sedimented (>30 min), the MTP's are analyzed in commercially available luminescence detection devices. […]
quantity: IC50

Okay, here is my list. What is IC50 for each of these?
1. CCOc1cc2c(cc1OC)C(c1ccc(C(=O)N3CCC(n4c(=O)c5sc(-c6ccc(F)cc6OC)cc5n(Cc5nc(CC)no5)c4=O)CC3)cc1)=N[C@@H]1CCSC[C@H]21
2. CCOc1cc2c(cc1OC)C(c1ccc(C(=O)N3CCC(n4c(=O)c5sc(-c6ccccc6)cc5n(Cc5nnn(CC)n5)c4=O)CC3)cc1)=N[C@@H]1CCSC[C@H]21
3. CCOc1cc2c(cc1OC)C(c1ccc(C(=O)N3CCC(n4c(=O)c5sc(-c6ccccc6)cc5n(Cc5coc(CC)n5)c4=O)CC3)cc1)=N[C@@H]1CCSC[C@H]21
4. CCOc1cc2c(cc1OC)C(c1ccc(C(=O)N3CCC(n4c(=O)c5sc(-c6ccccc6)cc5n(Cc5cnn(CC)n5)c4=O)CC3)cc1)=N[C@@H]1CCSC[C@H]21
5. CCOc1cc2c(cc1OC)C(c1ccc(C(=O)N3CCC(n4c(=O)c5sc(-c6cc(F)ccc6OC)cc5n(Cc5nnn(CC)n5)c4=O)CC3)cc1)=N[C@@H]1CCSC[C@H]21
6. CCOc1cc2c(cc1OC)C(c1ccc(C(=O)N3CCC(n4c(=O)c5sc(-c6ccccc6)cc5n(Cc5cn(CC)nn5)c4=O)CC3)cc1)=N[C@@H]1CCSC[C@H]21
7. CCOc1cc2c(cc1OC)C(c1ccc(C(=O)N3CCC(n4c(=O)c5sc(-c6ccccc6)cc5n(Cc5nnc(COC)o5)c4=O)CC3)cc1)=N[C@@H]1CCSC[C@H]21

Solution:
1 to 10 nM
> 10 nM
1 to 10 nM
1 to 10 nM
> 10 nM
1 to 10 nM
< 1 nM

Okay, here is my list. What is IC50 for each of these?
1. CCOc1cc2c(cc1OC)C(c1ccc(C(=O)N3CCC(n4c(=O)c5sc(-c6cccc(F)c6F)cc5n(Cc5nnn(CC)n5)c4=O)CC3)cc1)=N[C@@H]1CCSC[C@H]21
2. CCOc1cc2c(cc1OC)C(c1cccc(C(=O)N3CCC(n4c(=O)c5sc(-c6ccccc6F)cc5n(Cc5nnn(CC)n5)c4=O)CC3)c1)=N[C@@H]1CCSC[C@H]21
3. CCOc1cc2c(cc1OC)C(c1cccc(C(=O)N3CCC(n4c(=O)c5sc(-c6cc(F)ccc6OC)cc5n(Cc5nnn(CC)n5)c4=O)CC3)c1)=N[C@@H]1CCSC[C@H]21

Solution:
> 10 nM
1 to 10 nM
1 to 10 nM
